Value source: patent US20100260765A1

# target-or-system: human KDR (VEGFR2) on cells (human, UniProt P35968 20-1356)
# Sequence (P35968 20-1356): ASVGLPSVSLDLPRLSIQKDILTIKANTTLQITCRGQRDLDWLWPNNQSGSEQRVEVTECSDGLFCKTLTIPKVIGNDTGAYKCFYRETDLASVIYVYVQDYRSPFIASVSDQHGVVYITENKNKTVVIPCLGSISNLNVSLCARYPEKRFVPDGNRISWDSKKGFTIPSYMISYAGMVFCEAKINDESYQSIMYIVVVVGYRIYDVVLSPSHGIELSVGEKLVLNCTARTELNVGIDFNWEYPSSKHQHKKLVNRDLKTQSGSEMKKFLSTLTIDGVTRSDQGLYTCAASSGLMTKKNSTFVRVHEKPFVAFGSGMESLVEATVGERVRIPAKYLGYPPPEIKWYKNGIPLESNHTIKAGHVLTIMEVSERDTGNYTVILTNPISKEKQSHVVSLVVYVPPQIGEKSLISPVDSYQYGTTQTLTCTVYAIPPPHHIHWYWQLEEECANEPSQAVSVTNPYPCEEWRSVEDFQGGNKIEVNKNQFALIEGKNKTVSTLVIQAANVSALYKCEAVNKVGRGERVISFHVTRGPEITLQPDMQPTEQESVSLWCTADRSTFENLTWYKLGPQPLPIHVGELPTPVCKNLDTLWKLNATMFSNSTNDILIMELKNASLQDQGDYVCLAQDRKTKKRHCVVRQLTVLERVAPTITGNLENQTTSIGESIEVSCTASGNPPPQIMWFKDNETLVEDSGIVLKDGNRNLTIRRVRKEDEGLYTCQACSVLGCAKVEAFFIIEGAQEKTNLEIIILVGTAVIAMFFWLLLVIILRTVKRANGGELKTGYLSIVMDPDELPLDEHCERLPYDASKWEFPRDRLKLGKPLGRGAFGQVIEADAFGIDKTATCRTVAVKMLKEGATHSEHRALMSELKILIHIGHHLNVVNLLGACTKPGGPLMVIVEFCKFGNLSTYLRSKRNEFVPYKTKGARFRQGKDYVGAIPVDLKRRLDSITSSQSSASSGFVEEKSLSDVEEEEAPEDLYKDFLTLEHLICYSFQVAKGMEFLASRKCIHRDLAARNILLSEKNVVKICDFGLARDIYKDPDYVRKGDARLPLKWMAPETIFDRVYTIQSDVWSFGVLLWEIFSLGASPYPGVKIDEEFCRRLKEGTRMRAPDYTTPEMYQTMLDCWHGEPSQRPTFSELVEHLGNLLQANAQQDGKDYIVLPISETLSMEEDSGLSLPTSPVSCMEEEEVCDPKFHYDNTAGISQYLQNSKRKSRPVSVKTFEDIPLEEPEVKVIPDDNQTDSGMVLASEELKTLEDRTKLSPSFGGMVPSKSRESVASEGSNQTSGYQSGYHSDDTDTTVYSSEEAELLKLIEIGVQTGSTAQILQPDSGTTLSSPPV
# protocol-details: cell-based or functional assay
observable: HUVEC survival (n = 1) 1:10 dilution of supernatant (RLU)
Expressed in RLU, but write only the number.

// query HUVEC survival (n = 1) 1:10 dilution of supernatant (RLU) value for entry anti-KDR monoclonal antibody 33E1 (antibody, V domains shown, Fully human mAb from XenoMouse (IgG2 or IgG4 strain); hybridoma supernatant) VH: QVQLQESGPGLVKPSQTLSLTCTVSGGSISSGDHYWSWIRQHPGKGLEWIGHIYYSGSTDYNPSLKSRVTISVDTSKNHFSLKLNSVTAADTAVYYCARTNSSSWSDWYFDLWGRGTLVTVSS VL: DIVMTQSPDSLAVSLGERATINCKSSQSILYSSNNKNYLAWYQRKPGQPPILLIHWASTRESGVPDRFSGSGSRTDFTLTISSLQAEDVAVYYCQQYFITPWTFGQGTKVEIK
25700

// query HUVEC survival (n = 1) 1:10 dilution of supernatant (RLU) value for entry anti-KDR monoclonal antibody 29F7 (antibody, V domains shown, Fully human mAb from XenoMouse (IgG2 or IgG4 strain); hybridoma supernatant) VH: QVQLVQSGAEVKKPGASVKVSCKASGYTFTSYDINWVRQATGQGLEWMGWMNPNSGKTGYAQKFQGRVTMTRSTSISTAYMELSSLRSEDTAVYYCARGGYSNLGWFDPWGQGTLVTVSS VL: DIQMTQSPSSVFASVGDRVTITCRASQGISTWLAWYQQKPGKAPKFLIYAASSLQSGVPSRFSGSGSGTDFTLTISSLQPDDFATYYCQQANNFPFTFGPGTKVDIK
44100
